# method-description: Regional brain tissue binding by equilibrium dialysis, human post-mortem brain homogenate (control and AD donors)
# Type: in vitro ADME
# experimental-context: human, post-mortem brain tissue homogenate, control donors, BG, pH 7.4, Control donors, BG; biological replicates; 1 µM, 6 h, 37 °C; read-out: fu,brain,ROI Mean
Consider the following compounds and their measured fraction unbound at 6 h, 1 µM readings.
Answer as a number with no unit attached.

| compound | fraction unbound at 6 h, 1 µM |
| --- | --- |
| COc1ccc2c(c1)c(CC(=O)O)c(C)n2C(=O)c1ccc(Cl)cc1 | 0.073 |

Task item: // lookup fraction unbound at 6 h, 1 µM for CC12CC3CC(C)(C1)CC(N)(C3)C2 [Memantine, memantine]
Reply: 0.092

Task item: // lookup fraction unbound at 6 h, 1 µM for Cc1nc2n(c(=O)c1CCN1CCC(c3noc4cc(F)ccc34)CC1)CCCC2O (stereo not drawn)
Reply: 0.186
